Quick list: IC50 per entry.
tested.target: T1, human OT7T175 (metastin receptor) (human, UniProt Q969F8 1-398)
T1 construct: expressed on CHO cells (hOT7T175-expressed CHO cells; hOT7T175/CHO); also called hOT7T175; h0T7T175
T1 sequence (Q969F8 whole entry L364H): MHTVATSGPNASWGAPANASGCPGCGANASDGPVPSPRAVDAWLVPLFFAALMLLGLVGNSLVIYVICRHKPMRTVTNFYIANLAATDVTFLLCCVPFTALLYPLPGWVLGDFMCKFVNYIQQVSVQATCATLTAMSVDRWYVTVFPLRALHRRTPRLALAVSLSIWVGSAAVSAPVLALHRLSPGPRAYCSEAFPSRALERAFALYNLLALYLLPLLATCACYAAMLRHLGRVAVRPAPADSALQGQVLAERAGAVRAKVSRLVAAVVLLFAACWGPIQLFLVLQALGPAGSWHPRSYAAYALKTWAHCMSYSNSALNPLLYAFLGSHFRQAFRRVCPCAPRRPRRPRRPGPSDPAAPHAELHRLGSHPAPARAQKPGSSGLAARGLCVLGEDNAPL
test.details: FMAT competition with Cy-5-labeled metastin (40-54), hOT7T175-expressed CHO cells
Square brackets hold non-standard residues; d marks the D form. Ends that are not written are not given here. Phe(3-CF3) = N[C@@H](Cc1cccc(C(F)(F)F)c1)C(=O)O; Arg(Me) = CNC(=N)NCCC[C@H](N)C(=O)O; azaGly = NNC(=O)O
Unit nM implied. Number only.

The following binders have reported results that may help.
1) YNWNSFALRF-NH2 [Compound No. 50: [Ala7]MS10]: 190
2) YNWNSFGLR[Phe(3-CF3)]-NH2 [Compound No. 200: [Phe(3CF3)10]MS10]: 340
3) [dY][dN]TNSF[azaGly]L[Arg(Me)]F-NH2 (N-terminus assumed; SMILES CNC(=N)NCCC[C@H](NC(=O)[C@H](CC(C)C)NC(=O)NNC(=O)[C@H](Cc1ccccc1)NC(=O)[C@H](CO)NC(=O)[C@H](CC(N)=O)NC(=O)[C@@H](NC(=O)[C@@H](CC(N)=O)NC(=O)[C@H](N)Cc1ccc(O)cc1)[C@@H](C)O)C(=O)N[C@@H](Cc1ccccc1)C(N)=O) [Compound No. 284: [D-Tyr1,D-Asn2,Thr3,AzaGly7,Arg(Me)9]MS10]: 34

Okay, next one:
# IC50 (binder: WNSF[azaGly]L[Arg(Me)]F-NH2 (N-terminus assumed; SMILES CNC(=N)NCCC[C@H](NC(=O)[C@H](CC(C)C)NC(=O)NNC(=O)[C@H](Cc1ccccc1)NC(=O)[C@H](CO)NC(=O)[C@H](CC(N)=O)NC(=O)[C@@H](N)Cc1c[nH]c2ccccc12)C(=O)N[C@@H](Cc1ccccc1)C(N)=O) [Compound No. 271: des(1-2)-[AzaGly7,Arg(Me)9]MS10] ) is 120
